Target: T1, human CD73 on cells (CD73-transfected HEK cells; native on PBMCs; OCI-AML3 cells) (human, UniProt P21589 27-549)
T1 construct: also called NT5E; gene ID 4907
T1 sequence: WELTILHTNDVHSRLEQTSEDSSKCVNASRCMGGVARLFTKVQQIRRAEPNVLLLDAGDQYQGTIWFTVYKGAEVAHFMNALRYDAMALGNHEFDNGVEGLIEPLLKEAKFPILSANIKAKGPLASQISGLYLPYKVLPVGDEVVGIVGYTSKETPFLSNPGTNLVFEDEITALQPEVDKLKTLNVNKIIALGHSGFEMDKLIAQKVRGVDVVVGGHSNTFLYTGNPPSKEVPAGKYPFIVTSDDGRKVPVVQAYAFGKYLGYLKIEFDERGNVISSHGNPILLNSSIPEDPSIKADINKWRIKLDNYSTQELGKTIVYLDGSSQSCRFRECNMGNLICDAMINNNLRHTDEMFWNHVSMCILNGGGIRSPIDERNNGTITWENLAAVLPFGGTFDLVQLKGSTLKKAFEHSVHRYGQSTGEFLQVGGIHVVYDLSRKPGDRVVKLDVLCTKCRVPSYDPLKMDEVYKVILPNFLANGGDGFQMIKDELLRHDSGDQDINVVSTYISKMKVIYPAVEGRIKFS
Assay: flow cytometry, human CD73-expressing cells; competitor: human IgG hcAb SB116
We use 80% as the dividing line for percent inhibition of binding: on or above the line is y, below is n.

SB143 rabbit IgG hcAb (Fc fusion, not shown: hinge and Fc-domains of rabbit IgG) heavy: QVQLVESGGGLVQAGGSLRLSCAASGRTFSRSTMGWFRQAPGKERVFVAAIRWIGGTTTYGDSVKGRFTISVDNAKNTLYLQMNSLKPEDTAVYYCAATAGGPYYLGGRDILYDYWGQGTQVTVSS : y
SB141 rabbit IgG hcAb (Fc fusion, not shown: hinge and Fc-domains of rabbit IgG) heavy: QVQLVESGGGLVQPGGSLRLSCAASGFTFINYHMSWLRQAPGKGLEWVSEIHSRGDITSYTNSVKGRFTISRDNAKNTLYLQMNSLKFDDTAVYYCARSRDLFNEGEYDYWGRGTQVTVSS : n

Query: Quick check, percent inhibition of binding >= 80%? SB121 rabbit IgG hcAb (Fc fusion, not shown: hinge and Fc-domains of rabbit IgG) heavy: QVQLQESGGGLVQAGGSLRLSCAASGSIGSIIAMGWYRQGPGKQRELVARMFTDDGSTNYDDSVKGRFTISRDSAGTTVYLQMNSLKPEDTAVYYCNAQRRWNAYWGPGTQVTVSS
Reply: n

Query: Quick check, percent inhibition of binding >= 80%? SB139 rabbit IgG hcAb (Fc fusion, not shown: hinge and Fc-domains of rabbit IgG) heavy: QVQLQESGGGLVQAGGSLRLSCAASENIFNIYGMGWYRQAPGKLRDLVAKITSGGRTTYADSVKGRFTISGDNAKNTVYLQMNSLKPEDTAVYYCNSYYYWGQGTQVTVSS
Reply: n

Query: Quick check, percent inhibition of binding >= 80%? SB96 rabbit IgG hcAb (Fc fusion, VHH fused upstream of hinge and Fc of rabbit IgG; also called Nb-rbIgG hcAb SB96; not shown: hinge and Fc-domains of rabbit IgG) heavy: DVQLQASGGGLVQPGGSLRLSCTASGFTLDYLSIGWFRQVPGKEREGVSCINSSGGSTNYADSLKGRLTISRDNAKNTVYLQMNSLKPEDTAVYYCAAHKYYYCSNKVEVFDYWGQGTPVTVSS
Reply: n

Query: Quick check, percent inhibition of binding >= 80%? SB116 rabbit IgG hcAb (Fc fusion, also called SB116-rbFc; dimeric SB116 Fc construct; not shown: hinge and Fc-domains of rabbit IgG) heavy: QVKLQESGGGRVQTGGSLRLSCAASGISFSITTMYWYRQAPGEQRQLVALITDRGNTYYVDSVKGRFTISRDDSKNTVYLQMNDLKPEDTAVYFCNSIPGNDWGQGTQVTVSS
Reply: n
